test system: MDA-MB-435; experiment: Antiproliferative activity against human MDA-MB-435 cells after 72 hrs by SRB assay; assay type: functional, cell-based; conditions: MDA-MB-435, 72 h
OBSERVED_PROPERTY: pIC50
One number for each entry, as −log10 of the molar value.

molecule=Oc1ccc2cc(-c3ccc4c(c3)OCO4)ccc2c1 observed_property=pIC50 experimental_value=5.41

Alright, here's another molecule for you.
Item: COc1cc([C@@H]2c3cc4c(cc3[C@@H](O[C@@H]3O[C@@H]5CO[C@@H](C)O[C@H]5[C@H](O)[C@H]3O)[C@H]3COC(=O)[C@H]23)OCO4)cc(OC)c1O [ETOPOSIDE] | pIC50: 5.77
